test system: Escherichia coli DH5alpha
TEST READOUT: MIC

Below are worked cases with known answers.
MOLECULE: CC(C)C[C@H](NC(=O)[C@H](C)NC(=O)CNC(=O)[C@H](CC(C)C)NC(=O)[C@@H](N)Cc1ccccc1)C(=O)N[C@@H](Cc1ccccc1)C(=O)N[C@@H](CCCCN)C(=O)N[C@@H](C)C(=O)N[C@@H](CC(C)C)C(=O)N[C@@H](CO)C(=O)N[C@@H](CCCCN)C(=O)N[C@@H](CC(C)C)C(=O)N[C@H](C(=O)O)C(C)C [FLGALFKALSKLV]
MIC: ≥ 35.5 µM
--
MOLECULE: CC[C@H](C)[C@H](NC(=O)[C@H](CCCCN)NC(=O)CNC(=O)[C@H](C)NC(=O)[C@@H](NC(=O)[C@H](CCCCN)NC(=O)[C@H](C)NC(=O)[C@@H](NC(=O)[C@H](CCCCN)NC(=O)CNC(=O)[C@H](C)NC(=O)[C@@H](NC(=O)[C@H](CCCCN)NC(=O)[C@H](C)NC(=O)[C@@H](NC(=O)[C@H](CCCCN)NC(=O)CNC(=O)[C@H](C)NC(=O)[C@@H](NC(=O)[C@@H](N)CCCCN)[C@@H](C)CC)[C@@H](C)CC)[C@@H](C)CC)[C@@H](C)CC)[C@@H](C)CC)C(=O)N[C@@H](C)C(=O)O [KIAGKIAKIAGKIAKIAGKIA]
MIC: 7.75 µM
--
MOLECULE: CC[C@H](C)[C@H](NC(=O)[C@H](CCCCN)NC(=O)[C@H](CCCCN)NC(=O)[C@H](CC(C)C)NC(=O)CN)C(=O)N[C@H](C(=O)N[C@@H](CCCCN)C(=O)N[C@@H](CCCCN)C(=O)N[C@@H](CC(C)C)C(=O)N[C@@H](CC(C)C)C(N)=O)[C@@H](C)CC [GLKKIIKKLL]
MIC: ≥ 173 µM

-- ask # query: MIC of entry CC(C)C[C@H](NC(=O)[C@H](CCCCN)NC(=O)[C@@H](NC(=O)[C@H](CO)NC(=O)[C@H](Cc1ccccc1)NC(=O)[C@H](CC(C)C)NC(=O)[C@H](Cc1c[nH]c2ccccc12)NC(=O)[C@@H](NC(=O)[C@H](CS)NC(=O)[C@H](CC(N)=O)NC(=O)[C@@H](N)CCCN=C(N)N)[C@@H](C)O)[C@@H](C)O)C(=O)N[C@@H](CCCCN)C(=O)N[C@@H](CC(C)C)C(=O)N1CCC[C@H]1C(=O)N[C@@H](C)C(=O)O [RNCTWLFSTKLKLPA]
-- reply ≥ 112 µM

-- ask # repeat for CC[C@H](C)[C@H](NC(=O)[C@H](Cc1ccccc1)NC(=O)[C@H](CCCCN)NC(=O)[C@H](CC(C)C)NC(=O)[C@H](CC(C)C)NC(=O)CN)C(=O)N[C@@H](CCCCN)C(=O)N[C@@H](CCCCN)C(=O)N[C@@H](CC(C)C)C(=O)N[C@@H](CC(C)C)C(N)=O [GLLKFIKKLL]
-- reply ≥ 256 µM

-- ask // next record CC(C)C[C@H](NC(=O)[C@H](CC(C)C)NC(=O)[C@H](CCCCN)NC(=O)[C@H](CO)NC(=O)[C@H](CC(C)C)NC(=O)[C@H](C)NC(=O)[C@H](CCCCN)NC(=O)[C@H](Cc1ccccc1)NC(=O)[C@H](CC(C)C)NC(=O)[C@H](C)NC(=O)CNC(=O)[C@@H](NC(=O)[C@@H](N)Cc1ccccc1)C(C)C)C(=O)O [FVGALFKALSKLL]
-- reply ≥ 35.5 µM
